- ASSAY PROCEDURE: Mouse liver microsome (MLM) stability
- Format: in vitro ADME
- TEST SETTINGS: mouse, microsomes
Range-based classes on measured Mouse liver microsomes, MLM t½: bucket A = under 10 min, bucket B = from 10 min up to 80 min, bucket C = 80 min and over

[[record]]
molecule = "COc1cc2c(cc1OC)CN(C(C)(C)CCc1ccc(OCCO)c(OC)c1)C2 [compound 48]"
class_label = "bucket C"

[[record]]
molecule = "COc1cc2c(cc1OC)CN(C(C)(C)CCc1ccc(F)cc1)C2 [compound 34]"
class_label = "bucket B"

[[record]]
molecule = "COc1cc(CCC(C)(C)N2Cc3cccc(C(=O)N4CCN(C(C)=O)CC4)c3C2)ccc1O [compound 83]"
class_label = "bucket C"

[[record]]
molecule = "C[C@H](CCc1ccc(Cl)c(Cl)c1)N1Cc2cc(Cl)c(Cl)cc2C1 [compound 5]"
class_label = "bucket B"

[[record]]
molecule = "CC(C)Oc1cc(CC[C@@H](C)N2Cc3cccc(F)c3C2)ccc1O [compound 26]"
class_label = "bucket A"

[[record]]
molecule = "COc1cc(CCC(C)(C)N2Cc3ccc(F)cc3C2)ccc1OCCO [compound 45]"
class_label = "bucket C"

[[record]]
molecule = "COC[C@H](CCc1ccc(Cl)c(Cl)c1)N1Cc2ccc(F)cc2C1 [compound 46]"
class_label = "bucket A"

[[record]]
molecule = "COc1cc(CCC(C)(C)N2Cc3ccc(F)cc3C2)ccc1OC(=O)N(C)C [compound 50]"
class_label = "bucket B"

[[record]]
molecule = "C[C@H](CCc1ccc(Cl)c(Cl)c1)N1Cc2cccc(Cl)c2C1.Cl [compound 16]"
class_label = "bucket B"

[[record]]
molecule = "CC(C)(CCc1ccc(O)c(OC(F)(F)F)c1)N1Cc2ccc(S(C)(=O)=O)cc2C1 [compound 61]"
class_label = "bucket C"

[[record]]
molecule = "COc1ccc(CCC(C)(C)N2Cc3ccc(S(C)(=O)=O)cc3C2)cc1 [compound 102]"
class_label = "bucket B"

[[record]]
molecule = "COc1cc2c(cc1OC)CN([C@H](C)CCc1ccc(Cl)c(Cl)c1)C2 [compound 11]"
class_label = "bucket B"

[[record]]
molecule = "C[C@H](CCc1ccc(Cl)c(Cl)c1)N1Cc2cc3c(cc2C1)OCO3 [compound 10]"
class_label = "bucket A"

[[record]]
molecule = "COc1cc(CC[C@@H](C)N2Cc3cc4c(cc3C2)OCO4)ccc1OCCO [compound 52]"
class_label = "bucket C"

[[record]]
molecule = "COc1ccc2c(c1)CN([C@H](C)CCc1ccc(Cl)c(Cl)c1)C2.Cl [compound 15]"
class_label = "bucket B"

[[record]]
molecule = "CC(C)Oc1cc(CCC(C)(C)N2Cc3cccc(F)c3C2)ccc1O [compound 28]"
class_label = "bucket A"

